- assayed-system: Calmodulin-1 (Homo sapiens) (UniProt P0DP23)
- test-method-notes: calcium-bound CALM1 binders on microarrays, profiling panel, artefact control for SMM control-protein annotation, biochemical, small-molecule microarray, Cy5-labelled CALM1, plus calcium (AID 1112);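 further: score merges spot fluorescence with signal to noise from triplicate slides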
- protocol-conditions: Cy5-CALM1 binding fluorescence, higher = more signal

# item-smiles, composite z-score
records = [
    ("COC(=O)[C@@]1(Cc2ccccc2)[C@H]2c3cc(C(=O)N(C)C)n(CCSCCO)c3C[C@H]2CN1C(=O)c1ccccc1", 0.786),
    ("C=CC[C@@]1(C(=O)NCc2ccccc2)N=C(c2ccc(OCCCO)cc2)O[C@@H]1c1ccccc1N=[N+]=[N-]", 0.399),
    ("NC(=O)[C@@H]1[C@H]2C(=O)O[C@H](c3ccccc3)[C@H](c3ccccc3)N2[C@H](c2ccc(O)cc2)[C@@]12C(=O)Nc1ccc(C#CC3(O)CCCCCC3)cc12", 0.555),
    ("C=C(COC)/C(=C/C[C@@H](OC(C)=O)c1ccc(CO)o1)c1cnc2ccccc2c1", -0.6),
]

----------
- assayed-system: Calmodulin-1 (Homo sapiens)
- test-method-notes: CALM1 binders on microarrays, EGTA buffer, profiling panel, biochemical, small-molecule microarray, Cy5-labelled CALM1 (AID 1111);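 further: labelled calmodulin applied in Tris saline Tween buffer holding calcium plus EGTA and DTT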
- protocol-conditions: Cy5-CALM1 binding fluorescence, higher = more signal
Classification by composite z-score | ranges: lower band = under 0.08, central band = from 0.08 up to 0.7, upper band = 0.7 and over

# compound, label-value
rows = [
    ("CCOC1=C2C(CN(S(=O)(=O)c3ccc(C)cc3)C2c2ccc(C)cc2)C2C(=O)N(c3ccccc3)C(=O)C2C1 (stereo not given)", "upper band"),
    ("O=C1OCCC/C=C\\[C@H]2OC34C=CCN(CCN5CCOCC5)C(=O)[C@H]3N(CCCO)C(=O)[C@@H]4C12 (stereo not given in full)", "lower band"),
    ("CCN(CC)c1ccc(N2CC=CC34O[C@@H]5/C=C\\CCC(C)OC(=O)C5[C@H]3C(=O)N(C(CO)C(C)C)[C@@H]4C2=O)cc1 (stereo not given in full)", "lower band"),
    ("O=C(NCc1ccc(F)cc1)[C@H]1C[C@H]2C(=O)N[C@@H](Cc3ccccc3)C(=O)N2[C@H]1c1ccc(O)cc1", "lower band"),
    ("CN(C)C(=O)[C@]1(Cc2ccccc2CN=[N+]=[N-])N=C(c2ccc(OCCCO)cc2)O[C@@H]1c1ccccc1CN=[N+]=[N-]", "central band"),
    ("COc1ccc(C(=O)Nc2ccc(CN3C(=O)[C@@]4(O[C@@H](CC(=O)N5CCC[C@H]5CO)[C@H]([Si](C)(C)c5ccc(OC)cc5)[C@H]4C)c4ccccc43)cc2)cc1", "central band"),
    ("CN(C)CCCC[C@@H]1NC(=O)[C@H]2C[C@@H](C(=O)NCCCCCNC(=O)CS)[C@@H](c3cccc(OCCO)c3)N2C1=O", "central band"),
    ("C=CC[C@@]1(C(=O)NCc2ccccc2)N=C(c2ccc(OCCCO)cc2)O[C@@H]1c1ccccc1N=[N+]=[N-]", "upper band"),
    ("COc1cc2c(cc1OC)CN(C(=O)[C@@H]1[C@H]3C(=O)O[C@H](c4ccccc4)[C@H](c4ccccc4)N3[C@H](c3ccc(O)cc3)[C@@]13C(=O)Nc1ccc(C#CC4(O)CCCCCC4)cc13)CC2", "upper band"),
    ("[N-]=[N+]=NCc1ccccc1C[C@]1(C(=O)NCC(O)CO)N=C(c2ccc(OCCCO)cc2)O[C@H]1c1ccccc1 (stereo not given in full)", "upper band"),
    ("CCOC(=O)C[C@H]1[C@H](OC(=O)c2cc3ccccc3oc2=O)[C@@H](NC(=O)Cc2ccc(OC)cc2)c2cc(OCCCO)ccc2N1C(=O)c1ccccc1", "lower band"),
    ("CN(C)CCCNC(=O)[C@@]1(C)c2ccccc2C(=O)N(Cc2cc(F)cc(C(F)(F)F)c2)[C@H]1c1ccc(CO)cc1", "lower band"),
    ("COc1ccc(C(=O)Nc2ccc(CN3C(=O)[C@@]4(O[C@@H](CCn5cc([C@H](O)c6ccccc6)nn5)[C@H]([Si](C)(C)c5ccc(OC)cc5)[C@H]4C)c4ccccc43)cc2)cc1", "central band"),
    ("CC(C)(C)OC(=O)CC[C@]12N=C(c3ccc(OCCCO)cc3)O[C@H]1c1ccccc1N(CCS(=O)(=O)c1ccccc1)C2=O", "central band"),
    ("O=C1OCCC/C=C\\[C@H]2OC34C=CCN(c5ccc6ccccc6c5)C(=O)[C@H]3N(CCCCCCO)C(=O)[C@@H]4C12 (stereo not given in full)", "lower band"),
    ("CC(C)C[C@@H]1NC(=O)[C@@H]2C[C@H](C(=O)NCCCCCN)[C@H](c3cccc(OCCO)c3)N2C1=O", "upper band"),
    ("COc1cc2c(cc1O)C(C1CC1)N(Cc1cc3c(cc1Br)OCO3)CC2 (stereo not given)", "lower band"),
    ("C=CCOC(=O)[C@@H]1[C@H]2C(=O)O[C@H](c3ccccc3)[C@H](c3ccccc3)N2[C@H](c2ccc(OCCOC(=O)[C@@H]3C[C@@H]4C(=O)N[C@@H](CCCCN(C)C)C(=O)N4[C@@H]3c3ccc(O)cc3)cc2)[C@@]12C(=O)Nc1ccc(I)cc12", "upper band"),
    ("CCCC#C[Si](O[C@H](CC)c1cn([C@H](CO)Cc2ccccc2)nn1)(C(C)C)C(C)C", "central band"),
]
